// data source = paper PMC11508620

biological target: equine serum BuChE (eqBuChE) (Equus caballus); test: biochemical; conditions: [S] = 112 µM; 0.1 M phosphate buffer pH 8.0, 25 °C; mean ± SD
measured-metric: pIC50
Schema: pIC50 number; meaning minus log10 of the concentration expressed in molar units.

# query: pIC50 | item O=C1NC(Cn2cc(-c3ccccc3)nn2)=C(n2cc(-c3ccccc3)nn2)C(c2ccccc2)N1 (centres unmarked) | system: equine serum BuChE (eqBuChE) (Equus caballus)
4.28

Please state recorded pIC50 (tested on equine serum BuChE (eqBuChE) (Equus caballus)) of CC1=C(n2cc(-c3ccccc3)nn2)C(c2ccccc2)NC(=O)N1 (centres unmarked)
4.92

Hello, I am looking for reported pIC50 with equine serum BuChE (eqBuChE) (Equus caballus) for O=C1NC(Cn2cc(C3CC3)nn2)=C(n2cc(-c3ccccc3)nn2)C(c2ccccc2)N1 (centres unmarked) . Could you help?
4.24

Which pIC50 is reported with equine serum BuChE (eqBuChE) (Equus caballus) for this entry: CC1=C(n2cc(-c3ccccc3)nn2)C(c2ccc(Cl)cc2)NC(=O)N1 (centres unmarked) ?
4.62

I'm curious: which pIC50 was measured for O=C1NC(Cn2cc(CN3C(=O)C(=O)c4ccccc43)nn2)=C(n2cc(-c3ccccc3)nn2)C(c2ccccc2)N1 (centres unmarked) tested on equine serum BuChE (eqBuChE) (Equus caballus)?
6.00

###

Below, each entry is listed alongside its reported LC50 at 24 h.
Assay: Artemia salina lethal toxicity assay
Type: in vivo
Details: in vivo
Protocol: Artemia salina was used for in vivo general toxicity assessment of the compounds A1–3 and B1–5. The ARTOXKIT M protocol was used. The percentage of dyed nauplii of Artemia salina, grown in the presence of variable concentrations of the inhibitor compounds (A1–3 and B1–5) (0.01 to 100 µM). Saline water with 1% DMSO was used as a blank. In parallel, a K2Cr2O7 test was performed as quality control.

What does the record list as LC50 at 24 h for O=C1NC(Cn2cc(-c3ccc(Br)cc3)nn2)=C(n2cc(-c3ccccc3)nn2)C(c2ccccc2)N1 (centres unmarked) [Hybrid B2] ?
> 200 µM

# next molecule below
Request the reported LC50 at 24 h associated with O=C1NC(Cn2cc(-c3ccccc3)nn2)=C(n2cc(-c3ccccc3)nn2)C(c2ccccc2)N1 (centres unmarked) [Hybrid B1]
> 200 µM

###

biological target: equine serum BuChE (eqBuChE) (Equus caballus, UniProt P81908); test: biochemical; settings: [S] = 112 µM; 0.1 M phosphate buffer pH 8.0, 25 °C; mean ± SD
Sequence (P81908 whole entry): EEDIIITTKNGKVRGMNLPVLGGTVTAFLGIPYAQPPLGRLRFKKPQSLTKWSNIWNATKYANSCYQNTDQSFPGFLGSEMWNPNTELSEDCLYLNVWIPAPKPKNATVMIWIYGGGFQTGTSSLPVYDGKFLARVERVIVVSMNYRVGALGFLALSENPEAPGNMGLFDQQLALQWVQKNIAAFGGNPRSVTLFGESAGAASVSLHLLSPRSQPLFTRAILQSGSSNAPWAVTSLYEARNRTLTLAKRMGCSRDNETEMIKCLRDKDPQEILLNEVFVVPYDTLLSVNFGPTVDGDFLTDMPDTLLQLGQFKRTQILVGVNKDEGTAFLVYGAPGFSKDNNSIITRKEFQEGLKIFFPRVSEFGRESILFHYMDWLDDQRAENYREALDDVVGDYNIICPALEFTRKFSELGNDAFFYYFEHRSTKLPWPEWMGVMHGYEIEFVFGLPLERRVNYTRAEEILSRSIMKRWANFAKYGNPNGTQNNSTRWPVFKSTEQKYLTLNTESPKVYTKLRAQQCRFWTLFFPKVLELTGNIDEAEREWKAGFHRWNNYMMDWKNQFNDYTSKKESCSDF
pIC50: −log10 of the molar value.
measured-metric: pIC50

Fill blank: measured pIC50 of the compound O=C1NC(Cn2cc(-c3ccccc3)nn2)=C(n2cc(-c3ccccc3)nn2)C(c2ccc(OCc3ccccc3)cc2)N1 (stereo not drawn) [Hybrid B5] is ____.
< 4.00

Please give the measured pIC50 for this compound: O=C1NC(Cn2cc(-c3ccc(Br)cc3)nn2)=C(n2cc(-c3ccccc3)nn2)C(c2ccccc2)N1 (stereo not drawn) [Hybrid B2]
< 4.00

Further cases:
# lookup: pIC50 of CC1=C(n2cc(-c3ccccc3)nn2)C(c2ccc(OCc3ccccc3)cc2)NC(=O)N1 (stereo not drawn) [Hybrid A3]
< 4.00
